# Test system: Caupolican (Caup) homeodomain DNA-binding domain
# Sequence: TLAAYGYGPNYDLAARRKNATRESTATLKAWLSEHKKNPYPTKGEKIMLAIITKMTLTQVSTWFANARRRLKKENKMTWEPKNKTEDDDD
# test: PBM E-score (8-mer, recovered from the published 9-mer minima) (E-score (dimensionless, -0.5 to 0.5)); Drosophila protein; higher = stronger relative binding preference, active = 0.31 or more
The sample as a whole holds a higher share of hits than the screen did. No count for the full screen is at hand.
reported-endpoint: PBM E-score

{"columns": ["residue-codes", "assay-value"],
 "data": [
  ["AGGTACAC", 0.297],
  ["TGCACGCA", -0.0359],
  ["CAACATAA", 0.295],
  ["ATCTCCCC", -0.153],
  ["AAACATAT", 0.325],
  ["GAACATAA", 0.282],
  ["AAACATAC", 0.292],
  ["TAACATAA", 0.327],
  ["AAACATAG", 0.267],
  ["AAACATTA", 0.233]
]}
